System: SF-268 CNS
protocol_text: NCI tumour cell line growth inhibition, 48 h
Record form. Attribute: TGI. Fill in for each entry.

The measured TGI associated with COc1cc2c(cc1OC)C1C(O)C(OC)C(Br)C3(Br)CCN(C2)C13 (stereo not given) reads > 100 µM

The measured TGI associated with `CN(CCNC(=O)c1[nH]nc2c1Cc1ccccc1-2)CCNC(=O)c1[nH]nc2c1Cc1ccccc1-2` reads 39.6 µM

The measured TGI associated with Cc1cc2c(cc1C)N1C(Cl)=C3CCCCC3=C(C#N)C1N2 (stereo not given) reads 60.4 µM

The measured TGI associated with Cc1cn(CCOCCOC(=O)NC(CCCN=C(N)N)C(=O)O)c(=O)[nH]c1=O (stereo not given) reads > 100 µM

The measured TGI associated with `CCC[CH2][Sn]([CH2]CCC)([O]C(=O)Cc1ccc(F)cc1)[O]C(=O)Cc1ccc(F)cc1` reads 1.75 µM

The measured TGI associated with COc1cc(C2c3cc4c(cc3OC(N3CCCCC3)C2C)OCO4)cc(OC)c1OC (stereo not given) reads > 53.7 µM

The measured TGI associated with COc1ccc(C2=NN(C(=O)c3ccc(Cl)cc3)C(O)(c3cc(F)c(Cl)cc3Cl)C2)cc1OC (stereo not given) reads > 100 µM

The measured TGI associated with `COc1cc2c(cc1OC)C(=O)/C(=C/c1ccccc1)CC2` reads > 100 µM

The measured TGI associated with `Cc1c(NC(=O)c2cc(C(N)=O)nc3cc(F)ccc23)c(C(F)(F)F)nn1Cc1ccc(C#N)cc1` reads > 69.3 µM

The measured TGI associated with CCCCCC(/C=N/Nc1ccccc1)C(O)(C(F)(F)F)C(F)(F)F (stereo not given) reads > 100 µM
